Cited source for all entries: patent US10314920B2

experiment-description: Plasma protein binding, Equilibrium Dialysis RED device, rat plasma
Format: in vitro ADME
condition-summary: male, Han Wistar, pooled frozen plasma, 30 hours at 37° C., read-out: percentage unbound
reported-metric: fraction unbound at 30 h, 100 μmol/L

Problem: I have this compound here, CN(CCO)CC[C@H](CSc1ccccc1)Nc1ccc(S(=O)(=O)NC(=O)c2ccc(N3CCC([C@@H](O)c4ccccc4-c4ccc(Cl)cc4)CC3)cc2)cc1S(=O)(=O)C(F)(F)F [Compound A] , and I need its recorded fraction unbound at 30 h, 100 μmol/L.
Solution: < 1e-05

###

experiment-description: Plasma protein binding, Equilibrium Dialysis RED device, dog plasma
Format: in vitro ADME
condition-summary: male, Beagle, pooled frozen plasma, 30 hours at 37° C., read-out: percentage unbound
Excerpt: […]
reported-metric: fraction unbound at 30 h, 100 μmol/L

Problem: I have this compound here, CN(CCO)CC[C@H](CSc1ccccc1)Nc1ccc(S(=O)(=O)NC(=O)c2ccc(N3CCC([C@@H](O)c4ccccc4-c4ccc(Cl)cc4)CC3)cc2)cc1S(=O)(=O)C(F)(F)F , and I need its recorded fraction unbound at 30 h, 100 μmol/L.
Solution: < 1e-05

###

experiment-description: Solubility of Compound A (Form B), shake flask method
Type: physicochemical
condition-summary: organic solvent or mixture, thermodynamic from solid; crystalline Form B; propylene glycol; room temperature 24 hours
reported-metric: solubility at 24 h (µg/mL)
Give a bare numeral; the unit µg/mL is implied.

Problem: I have this compound here, CN(CCO)CC[C@H](CSc1ccccc1)Nc1ccc(S(=O)(=O)NC(=O)c2ccc(N3CCC([C@@H](O)c4ccccc4-c4ccc(Cl)cc4)CC3)cc2)cc1S(=O)(=O)C(F)(F)F , and I need its recorded solubility at 24 h.
Solution: 6120
